Target: recombinant soluble homotrimeric HA of A/Netherlands/219/03 (H7N7) (Influenza A virus A/Netherlands/219/03 (H7N7))
Experiment: HA microarray, BCC supernatant
Conditions: remark: other sources report otherwise
TEST READOUT: Trimeric HA Binding RLU (RLU)
Reply with just the number (in RLU).

Ask: Trimeric HA Binding RLU for TCN-554 (5277_M05) (antibody, V domains shown) VH: QVQLVQSGADLKKPGASVKVSCKASGYTFTDYYIHWVRQAPGQGLEWMGWINPESGDTKYAQKFQGRVTMTRDTSITTAYMELGRLRSDDTAVYYCARDVSTTWSWFAPWGQGTLVTVSS VL: DIVMTQSPDSLAVSLGERATINCRSSQSIFHNSNNENYLAWYQQKPGQPPKLLIYWASTRESGVPDRFSGSGSGTDFTLTISSLQAEDVAVYFCQQYYNAPLTFGGGTKVEIK ?
Reply: 610

Next:
Ask: Sample TCN-528 (5087_P17) (antibody, V domains shown) VH: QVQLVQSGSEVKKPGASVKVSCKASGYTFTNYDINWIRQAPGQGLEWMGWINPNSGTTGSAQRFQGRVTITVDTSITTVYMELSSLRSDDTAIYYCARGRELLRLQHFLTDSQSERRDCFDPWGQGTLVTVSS VL: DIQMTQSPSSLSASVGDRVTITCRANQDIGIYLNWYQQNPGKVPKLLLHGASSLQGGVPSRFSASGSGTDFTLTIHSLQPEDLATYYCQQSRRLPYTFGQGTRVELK — what was its Trimeric HA Binding RLU?
Reply: 49300
